Sourced from patent US20260242735A1

# Tgt: human CD33 T331A (human, UniProt P20138 18-364)
# Sequence (P20138 18-364 T331A limits assumed): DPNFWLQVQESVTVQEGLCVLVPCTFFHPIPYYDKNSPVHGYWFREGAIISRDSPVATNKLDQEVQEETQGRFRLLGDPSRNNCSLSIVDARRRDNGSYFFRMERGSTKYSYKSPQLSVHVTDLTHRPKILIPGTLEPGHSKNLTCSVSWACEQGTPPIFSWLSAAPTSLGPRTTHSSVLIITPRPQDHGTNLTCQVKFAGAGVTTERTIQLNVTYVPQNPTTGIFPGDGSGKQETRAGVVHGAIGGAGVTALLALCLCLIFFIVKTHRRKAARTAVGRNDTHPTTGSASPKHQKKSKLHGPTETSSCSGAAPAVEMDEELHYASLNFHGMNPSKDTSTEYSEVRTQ
# Experiment: flow cytometry, alanine scan
Recorded Mean % WT Binding for the following binders

Worked cases, Mean % WT Binding given:
INSERT INTO results (binder, recorded_result) VALUES
  ('Refmab #1 (antibody, V domains shown, The alanine scan used IgG or Fab; also called hP67.6) VH: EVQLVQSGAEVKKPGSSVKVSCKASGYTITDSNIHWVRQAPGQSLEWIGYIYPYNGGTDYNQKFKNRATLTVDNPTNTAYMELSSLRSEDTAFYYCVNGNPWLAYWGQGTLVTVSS VL: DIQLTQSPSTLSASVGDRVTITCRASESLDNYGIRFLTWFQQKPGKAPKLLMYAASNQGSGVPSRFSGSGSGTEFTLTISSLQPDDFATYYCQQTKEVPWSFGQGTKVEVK', '87.4 % of WT'),
  ('Refmab #2 (antibody, V domains shown, The alanine scan used IgG or Fab) VH: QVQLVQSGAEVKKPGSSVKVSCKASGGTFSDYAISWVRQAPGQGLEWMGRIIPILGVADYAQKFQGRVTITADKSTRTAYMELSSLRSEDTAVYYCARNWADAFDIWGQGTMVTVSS VL: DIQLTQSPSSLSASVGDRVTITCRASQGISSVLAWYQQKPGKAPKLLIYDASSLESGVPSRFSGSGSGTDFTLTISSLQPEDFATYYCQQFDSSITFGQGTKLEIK', '91.3 % of WT'),
  ('Refmab #4 (antibody, V domains shown, The alanine scan used IgG or Fab) VH: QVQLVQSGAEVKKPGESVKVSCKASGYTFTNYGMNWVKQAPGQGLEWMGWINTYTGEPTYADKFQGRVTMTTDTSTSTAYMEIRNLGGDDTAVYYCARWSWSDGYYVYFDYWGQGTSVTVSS VL: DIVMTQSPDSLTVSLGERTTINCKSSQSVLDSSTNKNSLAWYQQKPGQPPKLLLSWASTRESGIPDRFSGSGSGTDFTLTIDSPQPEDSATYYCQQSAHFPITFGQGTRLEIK', '97.9 % of WT');

Kindly consider the entry below.
INPUT: // Mean % WT Binding lookup, key: Refmab #3 (antibody, V domains shown, The alanine scan used IgG or Fab) VH: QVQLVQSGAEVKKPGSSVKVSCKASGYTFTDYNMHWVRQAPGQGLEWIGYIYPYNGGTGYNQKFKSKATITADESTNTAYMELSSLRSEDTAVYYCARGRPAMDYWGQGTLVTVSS VL: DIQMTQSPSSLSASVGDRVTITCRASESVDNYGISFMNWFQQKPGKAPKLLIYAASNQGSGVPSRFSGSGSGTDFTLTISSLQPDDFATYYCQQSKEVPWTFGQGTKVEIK
OUTPUT: 147 % of WT
